Target: Yp Dxr (Yersinia pestis, UniProt Q8ZH62)
Sequence (Q8ZH62 whole entry, looked up): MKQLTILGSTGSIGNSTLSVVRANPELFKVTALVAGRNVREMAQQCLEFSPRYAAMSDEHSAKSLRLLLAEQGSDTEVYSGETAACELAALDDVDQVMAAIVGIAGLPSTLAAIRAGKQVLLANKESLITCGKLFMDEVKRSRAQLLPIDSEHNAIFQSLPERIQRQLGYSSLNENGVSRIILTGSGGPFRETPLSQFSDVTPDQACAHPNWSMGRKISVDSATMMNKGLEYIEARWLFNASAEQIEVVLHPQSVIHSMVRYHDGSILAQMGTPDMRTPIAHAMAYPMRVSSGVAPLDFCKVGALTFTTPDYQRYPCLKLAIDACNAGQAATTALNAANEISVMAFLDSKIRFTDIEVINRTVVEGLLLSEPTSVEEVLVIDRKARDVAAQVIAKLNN
Measured property: log10(IC50) (log10 of the value in µM)
Reminder: these figures are log10 of reported IC50, in µM before transformation.

Q: Give log10(IC50) (Yp Dxr (Yersinia pestis, UniProt Q8ZH62)) of the following molecule: CC(=O)N(CCCP(=O)([O-])O)OCc1ccc(C(C)C)cc1.[Na+] [Compound 16d]
Ans: 0.08

Q: Param readout= log10(IC50); system= Yp Dxr (Yersinia pestis, UniProt Q8ZH62); entry= O=C(c1ccccc1)N(O)CCCP(=O)([O-])O.[Na+] [Compound 8e] ; returns value.
Ans: 0.65

Q: Identify the measured log10(IC50) of CC(=O)N(O)CCCP(=O)(O)O [Compound 2, FR900098] for Yp Dxr (Yersinia pestis, UniProt Q8ZH62).
Ans: -0.64

Q: Give log10(IC50) (Yp Dxr (Yersinia pestis, UniProt Q8ZH62)) of the following molecule: CC(=O)N(CCCP(=O)([O-])O)OCc1ccc(-c2ccccc2)cc1.[Na+] [Compound 16k]
Ans: 0.92

Q: Please provide the recorded log10(IC50) for CC(=O)N(CCCP(=O)([O-])O)OCc1ccc2ccccc2c1.[Na+] [Compound 16j] , tested on Yp Dxr (Yersinia pestis, UniProt Q8ZH62).
Ans: -0.48

Q: Please tell me: log10(IC50) of Cc1ccc(C(=O)N(O)CCCP(=O)([O-])O)cc1.[Na+] [Compound 8f] , system Yp Dxr (Yersinia pestis, UniProt Q8ZH62)?
Ans: 1.20

Q: Please provide the recorded log10(IC50) for CC(=O)N(CCCP(=O)([O-])O)OCc1cccc2ccccc12.[Na+] [Compound 16i] , tested on Yp Dxr (Yersinia pestis, UniProt Q8ZH62).
Ans: 1.35

###

Target: Mtb Dxr (Mycobacterium tuberculosis)
Sequence (P9WNS1 1-413): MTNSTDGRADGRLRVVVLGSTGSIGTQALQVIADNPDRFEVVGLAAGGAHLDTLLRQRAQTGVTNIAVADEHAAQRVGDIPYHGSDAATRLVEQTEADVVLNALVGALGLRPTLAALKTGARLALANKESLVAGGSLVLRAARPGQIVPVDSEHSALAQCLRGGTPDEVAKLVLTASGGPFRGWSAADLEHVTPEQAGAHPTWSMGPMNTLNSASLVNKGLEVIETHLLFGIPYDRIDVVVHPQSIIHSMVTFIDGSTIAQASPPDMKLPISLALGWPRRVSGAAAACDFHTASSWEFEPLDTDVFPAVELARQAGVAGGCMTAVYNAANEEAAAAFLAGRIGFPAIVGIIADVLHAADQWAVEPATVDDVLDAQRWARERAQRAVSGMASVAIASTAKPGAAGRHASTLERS
# Lookup of reported IC50 keyed by entry
Express your answer as a number followed by its unit.

Some solved cases for reference:
# Compound, Measured property, Reported measurement
rows = [
    ("CC(=O)N(CCCP(=O)([O-])O)OCc1ccc(C(C)C)cc1.[Na+] [Compound 16d]", "IC50", "48.4 µM"),
    ("CC(=O)N(CCCP(=O)([O-])O)OCc1ccc2ccccc2c1.[Na+] [Compound 16j]", "IC50", "1.45 µM"),
    ("O=C(CCCc1ccccc1)N(O)CCCP(=O)([O-])O.[Na+] [Compound 8h]", "IC50", "17.8 µM"),
]

# ---- query compound ----
Q: What IC50 appears in the records for this compound with Mtb Dxr (Mycobacterium tuberculosis)? CC(=O)N(O)CCCP(=O)(O)O [Compound 2, FR900098]
Ans: 2.91 µM
